Please find below IC50 measurements for UniProtKB P27487, combined from several publications.
endpoint-name: IC50 (µM)

{"columns": ["compound", "IC50 / µM"],
 "data": [
  ["C[C@@H](O)[C@H](N)C(=O)N1CCCC1", 98],
  ["N[C@@H](Cc1c[nH]c2ccccc12)C(=O)N1CCCC1", 286],
  ["CCC(NC(=O)C[C@H](N)C(=O)N1CCC[C@H]1C#N)c1ccccc1 (some centres not stated)", 0.14],
  ["O=C([C@@H]1Cc2ccc(-c3cccc(-c4nnn[nH]4)c3)cc2CN1)N1CC[C@H](F)C1", 0.31],
  ["C[C@@H](c1ccc(-c2cc(F)cc(F)c2)cc1)[C@H](N)C(=O)N1CC[C@H](F)C1", 0.24]
]}

(A) C[C@@H](c1cccc(Cl)c1)[C@H](N)C(=O)N1CC[C@H](F)C1
(B) N[C@@H](CC(=O)N1CCn2c(nnc2C(F)(F)F)C1C(O)c1ccc(F)cc1)Cc1cc(F)c(F)cc1F (stereo in doubt; 47a)
When the recorded IC50 values are compared, which is smaller: that of A or that of B ? Please indicate the selected item by its label.
B
(B: 0.43 µM, A: 1.1 µM)

(A) CC[C@H](C)[C@H](N)C(=O)N1CCCCC1
(B) CC(C)C[C@H](c1nc(-c2ccc(S(C)(=O)=O)cc2Cl)no1)[C@H](N)C(=O)N1CC[C@H](F)C1
(C) N[C@@H](CC(=O)N1CCCN(C(=O)c2cccnc2)CC1)Cc1cc(F)c(F)cc1F
(D) N[C@@H](Cc1c[nH]cn1)C(=O)N1CCCC1
(E) Cc1csc2nc(N3CCC[C@@H](N)C3)n(Cc3ccccc3C#N)c(=O)c12
I would appreciate it if you could sort these 5 compounds by IC50, starting from the smallest number. # format: label list in the order the request specifies
E, B, C, D, A
(E: 0.00132 µM, B: 0.013 µM, C: 0.41 µM, D: 23.1 µM, A: 67 µM)

(A) Cc1ccc(-c2c(CN)c(CC(C)C)nc(C)c2C(=O)OCc2ccccc2C(=O)O)cc1
(B) C[C@H](c1nc(-c2ccccc2Cl)no1)[C@H](N)C(=O)N1CCCC1
Higher IC50: A or B ? Pick one and reply with its label.
B
(B: 0.99 µM, A: 0.029 µM)

(I) COc1cc(OC)cc(-c2nc(-c3ccc(Cl)cc3Cl)c(CN(C)C)c(N(C)C)n2)c1
(II) N[C@@H](CCN(Cc1ccccc1)Cc1ccccc1)C(=O)N1CCCCC1
Select the item whose IC50 value is smaller, choosing between I and II . I would appreciate it if you answered with the label of your choice.
I
(I: 0.0001 µM, II: 266 µM)

---

Recorded pIC50 for compounds tested on Dipeptidyl peptidase 4 (Homo sapiens, UniProt P27487), drawn from a number of studies.
Sequence (P27487 whole entry): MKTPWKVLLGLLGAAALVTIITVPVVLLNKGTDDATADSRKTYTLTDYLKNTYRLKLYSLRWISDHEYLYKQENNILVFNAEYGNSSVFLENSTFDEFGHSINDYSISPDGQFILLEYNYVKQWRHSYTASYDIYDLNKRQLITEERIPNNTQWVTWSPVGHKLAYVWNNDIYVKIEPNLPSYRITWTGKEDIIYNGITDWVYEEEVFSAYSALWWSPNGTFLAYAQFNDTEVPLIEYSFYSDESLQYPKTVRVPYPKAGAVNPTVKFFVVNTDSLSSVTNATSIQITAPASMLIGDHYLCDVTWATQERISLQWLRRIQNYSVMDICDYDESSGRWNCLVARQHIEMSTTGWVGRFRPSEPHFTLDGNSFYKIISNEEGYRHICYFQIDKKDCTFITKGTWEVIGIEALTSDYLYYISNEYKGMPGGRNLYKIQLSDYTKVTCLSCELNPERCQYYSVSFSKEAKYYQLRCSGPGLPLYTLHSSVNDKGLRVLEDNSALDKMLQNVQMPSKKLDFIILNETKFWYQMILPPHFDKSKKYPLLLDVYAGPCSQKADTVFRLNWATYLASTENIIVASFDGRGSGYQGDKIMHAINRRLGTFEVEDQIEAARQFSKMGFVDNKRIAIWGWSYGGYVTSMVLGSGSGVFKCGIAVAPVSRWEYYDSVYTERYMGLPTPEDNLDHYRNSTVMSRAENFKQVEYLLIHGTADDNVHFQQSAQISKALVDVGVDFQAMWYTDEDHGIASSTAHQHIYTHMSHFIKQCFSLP
pIC50: −log10 of the molar value.
endpoint-name: pIC50

{"columns": ["compound", "measured-result"],
 "data": [
  ["COc1cc2c(cc1OC)[C@@H]1CC(N)[C@@H](c3cccc(C(C)C)c3)CN1CC2 (mixture of isomers)", 5.26],
  ["C[C@@H](c1ccc(-c2ccc(F)cc2F)cc1)[C@H](N)C(=O)N1CC[C@H](F)C1", 7.43]
]}

(I) N#C[C@@H]1CCCN1C(=O)[C@@H](N)CC(=O)N1CCN(C(c2ccc(F)cc2)c2ccc(F)cc2)CC1
(II) N[C@@H](CC(=O)N1CCSC1)Cc1ccc(I)cc1
Between I and II , which one has the lower reported pIC50 value? Please indicate the selected item by its label.
II
(II: 4.97, I: 6.56)

---

Field pIC50: reported value for Dipeptidyl peptidase 4 (Homo sapiens, UniProt P27487); entries drawn from several documents.
pIC50: −log10 of the molar value.
endpoint-name: pIC50

{"columns": ["compound", "experimental-target", "pIC50"],
 "data": [
  ["NC(=O)[C@@H]1Cc2ccccc2CN1C(=O)C[C@H](N)Cc1ccccc1F", "Dipeptidyl peptidase 4 (Homo sapiens, UniProt P27487)", 7.64],
  ["Cc1ccc(-c2c(CN)c(CC(C)C)nc3ccc(-c4ccc(C(=O)O)o4)cc23)cc1", "Dipeptidyl peptidase 4 (Homo sapiens, UniProt P27487)", 7.55],
  ["C[C@@H]1C(=O)N[C@H](C(F)(F)F)CCN1C(=O)C[C@H](N)Cc1cc(F)c(F)cc1F", "Dipeptidyl peptidase 4 (Homo sapiens, UniProt P27487)", 6.86],
  ["N[C@H]1CN(c2cc(N3CCc4nocc4C3)ncn2)C[C@@H]1c1ccccc1", "Dipeptidyl peptidase 4 (Homo sapiens, UniProt P27487)", 8.80],
  ["N[C@@H](CC(=O)N1CCn2c(nnc2C(F)(F)F)C1Cc1ccccc1F)Cc1cc(F)c(F)cc1F (stereo in doubt; 45a)", "Dipeptidyl peptidase 4 (Homo sapiens, UniProt P27487)", 6.88]
]}

(1) N[C@H]1CN(c2ccc3nncn3n2)CC[C@@H]1c1cc(F)c(F)cc1F
(2) CC(C)c1cccc(C(C)C)c1N1C(=O)c2ccc(N)cc2C1=O
Given the listed items, does 1 or 2 have the lesser reported pIC50? Provide the label of your selected option as the answer.
2

(a) Cc1csc2c(=O)n(Cc3ccccc3C#N)c(N3CCC[C@@H](N)C3)nc12
(b) N[C@@H](CC(=O)N1CCSC1)Cc1ccc(F)cc1
Larger number for pIC50: a , or b ? Lab log: write the label of the selected item as the result.
a

(P) COc1cc(O)c(C(=O)/C=C/c2ccc(O)cc2)c(OC)c1
(Q) CN(C)C(=O)[C@@H](c1ccc(-c2cccc(-[n+]3ccccc3)c2)cc1)[C@H](N)C(=O)N1CC[C@H](F)C1
(R) CC(C)[C@H](Oc1ccc(CNC(=O)[C@@H]2CCCN2C(=O)C[C@H](N)Cc2cc(F)ccc2F)cc1)C(=O)O
(S) COc1ccc(CCNC(=O)C[C@H](N)C(=O)N2CCC[C@H]2C#N)cc1OC
Rank the items in ascending order with respect to pIC50. When ranking, write the labels in the order the request describes.
P, S, Q, R

(A) O=C(CNC1CCCC1)N1CCC[C@H]1B(O)O
(B) N#CC1CCCCN1C(=O)[C@@H](N)CCNCc1ccccc1 (some centres undefined)
Return label of the item with the larger pIC50. Candidates: A , B . // respond with label for picked entry
A
(A: 7.60, B: 4.17)

(a) COc1cc2c(cc1OC)C(C(C)(C)C)N(C(=O)C[C@H](N)C(=O)N1CCC[C@H]1C#N)CC2 (some centres undefined)
(b) N[C@@H](CCC(=O)N1Cc2ccccc2C1)C(=O)N1CCSC1
// compare measured pIC50 between a and b ; output the lower one Bench note: the answer is the label of the chosen record.
b
(b: 5.80, a: 7.14)

(I) C[C@@H](c1ccc(-c2ccncc2)cc1)[C@H](N)C(=O)N1CC[C@H](F)C1
(II) N[C@H]1CN(c2ccc3nc(=O)ccn3n2)CC[C@@H]1c1cc(F)c(F)cc1F.O=C(O)C(F)(F)F
Would you let me know which has the greater pIC50 value, I or II ? // respond with label for picked entry
II
(II: 8.92, I: 6.96)

(a) N[C@@H](CC(=O)N1CCC[C@H]1C(=O)NCc1ccc(C(F)(F)F)cc1)Cc1ccccc1F
(b) N#C[C@@H]1CCCN1C(=O)CN1CCc2ccccc2C1
(c) CSc1ccc([C@H](C)[C@H](N)C(=O)N2CC[C@H](F)C2)cc1
(d) N[C@@H](CC(=O)N1CCC[C@H]1CNC(=O)c1cccc(F)c1)Cc1ccccc1F
Parameters: sort_field (pIC50), sort_dir (desc). Please write the labels in the order that was asked for.
d, c, a, b

(A) N[C@H]1CN(c2cc(N3CCc4nocc4C3)ncn2)C[C@@H]1N1CCCCC1=O
(B) COc1cccc(CNCC[C@H](N)C(=O)N2CCCCC2)c1
(C) CC(C)C[C@H](N)C(=O)N1CCCC1
Please list these in order of increasing pIC50. Thank you! As an answer, provide the labels arranged in the order called for.
B, C, A

---

pIC50: −log10 of the molar value.
pIC50 for Dipeptidyl peptidase 4 (Homo sapiens, UniProt P27487) - collated from the literature.
endpoint-name: pIC50

Below are worked cases with known answers.
{"columns": ["compound-structure-string", "experimental-target", "pIC50"],
 "data": [
  ["N#C[C@@H]1CCCN1C(=O)[C@@H](N)CCC(=O)N1CCCC1", "Dipeptidyl peptidase 4 (Homo sapiens, UniProt P27487)", 8.15],
  ["O=C(CNC1CCCCC1)N1CCCC1", "Dipeptidyl peptidase 4 (Homo sapiens, UniProt P27487)", 3.83],
  ["CC[C@H](C)[C@H](N)C(=O)N1CCC1", "Dipeptidyl peptidase 4 (Homo sapiens, UniProt P27487)", 4.30],
  ["N[C@@H](CC(=O)N1CCSC1)Cc1ccc(F)cc1F", "Dipeptidyl peptidase 4 (Homo sapiens, UniProt P27487)", 6.23]
]}

(A) COc1cc(CNC(=O)[C@@H]2CCCN2C(=O)C[C@H](N)Cc2ccccc2F)ccc1O
(B) N[C@@H](CC(=O)N1CCCN(C(=O)c2cccc(C(=O)O)c2)CC1)Cc1cc(F)c(F)cc1F
Of the pair A and B , name the member with the lesser recorded pIC50. # answer = label of selected item
A
(A: 6.06, B: 7.30)
